# System: SARS-CoV-2
# protocol_summary: microbe, parasite or virus in culture
# Format: cell-based
# condition_label: Severe acute respiratory syndrome coronavirus 2, HeLa-ACE2, HeLa/ACE2; read-out: Inhibition of Viral Infectivity EC50
measured_property: EC50 (nM)
Supply the numeric figure in nM, leaving out any unit text.

The recorded EC50 for entry CN1CCN(C(=O)N[C@@H](Cc2ccccc2)C(=O)N[C@H](/C=C/S(=O)(=O)c2ccccc2)CCc2ccccc2)CC1 [K777] equals 4

====

# protocol_summary: Cytotoxicity to host cells, A549/ACE2
# Type: cell-based
# condition_label: human
measured_property: CC50

The recorded CC50 for entry CN1CCN(C(=O)N[C@@H](Cc2ccccc2)C(=O)N[C@H](/C=C/S(=O)(=O)c2ccccc2)CCc2ccccc2)CC1 [K777] equals > 10 µM
